Target: Fibrinogen beta chain (Homo sapiens)
Assay: inhibitors of Tn6 peptide binding to fibrin DD(E), confirmation, biochemical, fluorescence polarization, human fibrin, Tn6 probe (AID 720631);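 note: 0% = plate median of compound wells and 100% = inhibitor peptide control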
Settings: FP displacement of TRITC-Tn6 peptide from DD(E); at 8.3 µM; hits give high values; 0% = per-plate median of test wells
This is one part of the list.
endpoint.name: inhibition (%)
Provide only the numeric value, understood in %.

Study these solved cases before continuing.
[
  {
    "compound": "Cc1cc2ccccc2n1CCNC(=O)COc1ccc2ccccc2c1",
    "unit": "%",
    "reported.result": 12.1
  },
  {
    "compound": "Cc1ccc(-c2nn(-c3ccccc3)cc2/C=C/C(=O)Nc2cccc(S(N)(=O)=O)c2)cc1",
    "unit": "%",
    "reported.result": 4.74
  }
]

Sure, the documented inhibition for Cc1nnsc1S(=O)(=O)Cc1ccccc1Cl is -10.5

inhibition recorded for this compound, CN1c2ccc(C=O)c3c(C=O)ccc(c23)N(C)C1(C)C , is -6.98

* * *

inhibition: recorded values
Target: Fibrinogen beta chain (Homo sapiens)
Assay: inhibitors of Tn6 peptide binding to fibrin DD(E), confirmation, biochemical, fluorescence polarization, human fibrin, Tn6 probe (AID 720631);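 note: 0% = plate median of compound wells and 100% = inhibitor peptide control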
Conditions: FP displacement of TRITC-Tn6 peptide from DD(E); at 8.3 µM; hits give high values; 0% = per-plate median of test wells
The other results are listed elsewhere or left out. Activity calls are given as the source filed them.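 How the source made its calls: active means inhibition above the mean of compounds lying within the control limits plus 3 SD (cut at about 16% in these data); inactive means the rest.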

Some molecules with recorded inhibition:
[
  {
    "molecule": "O=c1cc(Cn2nnc(-c3ccc(Cl)cc3)n2)nc2sccn12",
    "target.entity": "Fibrinogen beta chain (Homo sapiens)",
    "reported.result": "-6.19% (inactive)"
  },
  {
    "molecule": "CCOC(=O)N1CCN(Cc2nc(N)nc(Nc3ccc(C)cc3)n2)CC1",
    "target.entity": "Fibrinogen beta chain (Homo sapiens)",
    "reported.result": "-3.1% (inactive)"
  },
  {
    "molecule": "O=c1[nH]n(-c2ccc([N+](=O)[O-])cc2)c(=O)c2ccccc12",
    "target.entity": "Fibrinogen beta chain (Homo sapiens)",
    "reported.result": "12.3% (inactive)"
  },
  {
    "molecule": "COc1ccc(N2C(=O)NC(NS(=O)(=O)c3ccc(Cl)cc3)(C(F)(F)F)C2=O)cc1 (configuration not stated)",
    "target.entity": "Fibrinogen beta chain (Homo sapiens)",
    "reported.result": "1.83% (inactive)"
  },
  {
    "molecule": "COc1ccc(Nc2nc(-c3cccnc3)nc3ccccc23)cn1",
    "target.entity": "Fibrinogen beta chain (Homo sapiens)",
    "reported.result": "-6.63% (inactive)"
  },
  {
    "molecule": "Cc1ccc(NC(=O)CN2CCc3ccccc3C2)cc1",
    "target.entity": "Fibrinogen beta chain (Homo sapiens)",
    "reported.result": "-6.7% (inactive)"
  },
  {
    "molecule": "CCC1C(=O)NCCN1C(=O)c1ccc2nc(Cc3ccc(OC)cc3)oc2c1 (configuration not stated)",
    "target.entity": "Fibrinogen beta chain (Homo sapiens)",
    "reported.result": "-13.1% (inactive)"
  },
  {
    "molecule": "CONc1nc2nonc2nc1NOC",
    "target.entity": "Fibrinogen beta chain (Homo sapiens)",
    "reported.result": "-1.66% (inactive)"
  },
  {
    "molecule": "CCc1cc(-c2nnc(SCC(=O)NC3CC3)n2C)cs1",
    "target.entity": "Fibrinogen beta chain (Homo sapiens)",
    "reported.result": "2.54% (inactive)"
  },
  {
    "molecule": "O=C(CCl)NNc1cccc(Cl)n1",
    "target.entity": "Fibrinogen beta chain (Homo sapiens)",
    "reported.result": "4.87% (inactive)"
  }
]

Measured inhibition for this entry CCOCC(=O)NCc1ccc2c(c1)cc(C)n2C on Fibrinogen beta chain (Homo sapiens): 0.62% (inactive)

Value sought: inhibition, system Fibrinogen beta chain (Homo sapiens), item Cc1cc2cc(CNC(=O)c3ccc(S(=O)(=O)N4CCOCC4)cc3)ccc2[nH]1 . Result: -6.87% (inactive)

The measured inhibition that Cc1ccc(-c2nc(C)sc2CC(=O)O)cc1 showed for Fibrinogen beta chain (Homo sapiens) is 1.06% (inactive)

The reported Fibrinogen beta chain (Homo sapiens) inhibition of Cc1cc2nc3c(=O)[nH]c(=O)nc-3n(C[C@H](O)[C@H](O)[C@H](O)CO)c2cc1C is 12.4% (inactive)

So the reported inhibition for Oc1ccc(N=Cc2sc3ccccc3c2Cl)cc1 , on Fibrinogen beta chain (Homo sapiens), turned out to be -11.2% (inactive)

Reported inhibition (Fibrinogen beta chain (Homo sapiens)) for entry Cc1cc(C)c2nc(NC(=O)C3CCCO3)sc2c1 (configuration not stated) is 4.35% (inactive)

Field inhibition (system: Fibrinogen beta chain (Homo sapiens)) for entry O=C(NCCNc1ccccc1[N+](=O)[O-])c1ccccc1F = -1.55% (inactive)
